The measured values listed here are drawn from the supplement of paper PMC9233669.

System: biotinyl-Val-oxazolone
Test: self-aminoacylation, catalytic enhancement (BVO) (fold over background); higher = more active; k-Seq, kA / k0A0; sequences stand for … in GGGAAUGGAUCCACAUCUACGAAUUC…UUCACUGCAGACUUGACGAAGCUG
This sample holds only a part of the variants without activity.
property-name: self-aminoacylation
Give the figure by itself; no unit, no explanation.

>  <sequence-content>
CCACACGUCAAGCAAUCGCUC [Fam1B.1 aminoacylation ribozyme variant]

>  <result-value>
2.54

$$$$
>  <sequence-content>
ACUACCCAGGUCAUCGAGUGA [Fam2.1 aminoacylation ribozyme variant]

>  <result-value>
3.89

$$$$
>  <sequence-content>
AUUCGCCUGGUCAUCGAGUGA [Fam2.1 aminoacylation ribozyme variant]

>  <result-value>
3.17

$$$$
>  <sequence-content>
CCACACUUCUAGCAAUCGGGC [Fam1B.1 aminoacylation ribozyme variant]

>  <result-value>
1.64

$$$$

So the reported self-aminoacylation for CCACACUUCAAGUGAUCGGUC [Fam1B.1 aminoacylation ribozyme variant] , on biotinyl-Val-oxazolone, turned out to be 1.06

Tested on biotinyl-Val-oxazolone: CCACUUCCAACAAUCGGUCUG [Fam1A.1 aminoacylation ribozyme variant] . Observed self-aminoacylation: 1.11

self-aminoacylation on biotinyl-Val-oxazolone for AUUCUCCUAGGUGAUCGGGUG [Fam2.2 aminoacylation ribozyme variant] is 3.62

Reported self-aminoacylation (biotinyl-Val-oxazolone) for entry GUUCACCUAGGCCAUCGGGUG [Fam2.2 aminoacylation ribozyme variant] is 3.86
